src = patent US20050209278A1

- experimentalTarget: MMP-14 (Homo sapiens)
- Construct: The catalytic domain enzyme was expressed in E. coli inclusion bodies, solubilized in urea; made in house
- procedureSummary: In vitro MMP inhibition, Ki determination (fluorogenic substrate II)
- Type: biochemical
- measurementConditions: value outside parentheses; read-out: MMP-14 Ki
# Ki per record follows
propertyMeasured: Ki (nM)

                                   compound     experimentaltarget  propertymeasured  value
0  CCCCc1ccc(C2CCN(S(=O)(=O)C3(C(=O)NO)CCOCC3)CC2)nc1 [Example 307]  MMP-14 (Homo sapiens)                Ki   1290
1  O=C(NO)C1(S(=O)(=O)N2CCC(c3ccc(OCC(F)(F)F)cc3)CC2)CCOCC1  MMP-14 (Homo sapiens)                Ki   2290
2  COCCN1CCC(C(=O)NO)(S(=O)(=O)N2CCC(c3ccc(CCC(F)(F)F)cc3)CC2)CC1  MMP-14 (Homo sapiens)                Ki   1440
3  O=C(NO)C1(S(=O)(=O)N2CCC(COCc3ccc(OC(F)(F)F)cc3)CC2)CCOCC1  MMP-14 (Homo sapiens)                Ki   71.8
4  O=C(NO)C1(S(=O)(=O)N2CCN(c3ccc(OCC4CC4)c(F)c3)CC2)CCOCC1  MMP-14 (Homo sapiens)                Ki   2360
5  O=C(NO)C1(S(=O)(=O)N2CCC(c3ccc(OCCC(F)(F)F)cn3)CC2)CCOCC1  MMP-14 (Homo sapiens)                Ki   5360

* * *

- experimentalTarget: MMP-9 (Homo sapiens)
- Construct: made in house; host or cells: MMP-9-transfected HT1080 cells (spent media)
- Sequence (P14780 107-707 limits assumed): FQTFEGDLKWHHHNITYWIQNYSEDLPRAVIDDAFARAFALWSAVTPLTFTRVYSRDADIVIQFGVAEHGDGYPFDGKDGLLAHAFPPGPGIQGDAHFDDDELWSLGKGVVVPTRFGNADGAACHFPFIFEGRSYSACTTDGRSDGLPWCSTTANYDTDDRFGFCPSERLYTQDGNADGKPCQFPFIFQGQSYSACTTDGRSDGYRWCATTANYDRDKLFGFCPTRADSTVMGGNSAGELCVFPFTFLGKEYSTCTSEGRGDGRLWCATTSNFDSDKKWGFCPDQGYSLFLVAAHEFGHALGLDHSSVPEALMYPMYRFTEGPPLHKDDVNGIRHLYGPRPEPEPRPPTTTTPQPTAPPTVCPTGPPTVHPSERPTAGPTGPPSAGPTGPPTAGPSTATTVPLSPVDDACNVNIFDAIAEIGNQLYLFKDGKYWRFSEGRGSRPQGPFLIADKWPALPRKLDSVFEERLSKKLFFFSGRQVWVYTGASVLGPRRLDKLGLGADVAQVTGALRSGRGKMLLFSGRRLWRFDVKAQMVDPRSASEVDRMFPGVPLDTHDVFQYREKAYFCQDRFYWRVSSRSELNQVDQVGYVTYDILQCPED
- procedureSummary: In vitro MMP inhibition, Ki determination (fluorogenic substrate II)
- Type: biochemical
- measurementConditions: human recombinant enzyme; 4 μM substrate II; room temperature, 1 hr
Counter-ions that a name gives are not always drawn.
propertyMeasured: Ki

>>> df
                                    compound     value
 0  O=C(NO)C1(S(=O)(=O)N2CCC(c3ccc(CCC(F)(F)C(F)(F)F)cc3)CC2)CCOCC1 [Example 18]  0.398 nM
 1  COc1ccc(-c2cnc(N3CCN(S(=O)(=O)C4(C(=O)NO)CCOCC4)CC3)nc2)cc1 [Example 8, Hydrochloride]   1.65 nM
 2  O=C(NO)C1(S(=O)(=O)N2CCN(c3ccc(-c4ccccc4)c(F)c3)CC2)CCOCC1 [Example 12, Hydrochloride]      1 nM
 3  CCCCc1ccc(C2CCN(S(=O)(=O)C3(C(=O)NO)CCN(C4CC4)CC3)CC2)nc1 [Example 24, Hydrochloride]   0.12 nM
 4  O=C(NO)C1(S(=O)(=O)N2CCC(c3cnc(OCC(F)(F)C(F)(F)F)cn3)CC2)CCOCC1 [Example 27]   0.54 nM
 5  COCCOc1ccc(N2CCN(S(=O)(=O)C3(C(=O)NO)CCOCC3)CC2)cc1 [Example 14, Hydrochloride]     20 nM
 6  O=C(NO)C1(S(=O)(=O)N2CCN(c3ccc(OCC4CC4)c(F)c3)CC2)CCN(C2CC2)CC1 [Example 10, dihydrochloride]   0.97 nM
 7  CCCCCc1ccc(N2CCN(S(=O)(=O)C3(C(=O)NO)CCN(CCOC)CC3)CC2)cc1F [Example 13, Dihydrochloride]  0.712 nM
 8  CCCCCCCCC1CCN(S(=O)(=O)C2(C(=O)NO)CCOCC2)CC1 [Example 26]   0.33 nM
 9  COCCN1CCC(C(=O)NO)(S(=O)(=O)N2CCN(c3ccc(OCCCC(F)(F)F)cc3)CC2)CC1 [Example 9, Dihydrochloride]   2.76 nM
10  O=C(NO)C1(S(=O)(=O)N2CCN(c3ccc(OCC(F)(F)F)cc3)CC2)CCOCC1 [Example 2, Hydrochloride]   1.28 nM
11  O=C(NO)C1(S(=O)(=O)N2CCN(c3ccc(OCCCC(F)(F)F)cc3)CC2)CCOCC1 [Example 7, Hydrochloride]   7.35 nM
